Value source: ChEMBL document CHEMBL1687866

# key: entry, value: Cell viability
assay-protocol: Cytotoxicity against human SW1116 cells assessed as cell viability rate at 1 ug/ml after 24 hrs by MTT assay
Type: functional, SW 1116
# number only, unit % dropped from output

Solved entries:
1. O=C1CCCC2=C1C(c1ccco1)C(NC(=O)c1ccccc1)C(=O)O2 (mixture of isomers)	97.92
2. CC1(C)CC(=O)C2=C(C1)OC(=O)C(NC(=O)c1ccccc1)C2c1ccc(F)cc1 (mixture of isomers)	91.39

Now, please, on to the next molecule.
Entry CC1(C)CC(=O)C2=C(C1)OC(=O)C(NC(=O)c1ccccc1)C2c1ccco1 (stereo not drawn) — recorded Cell viability = 67.67

====

Test system: SGC-7901
assay-protocol: Cytotoxicity against human SGC7901 cells after 20 hrs by MTT assay
Assay type: functional, cell-based
measurement-parameters: SGC-7901, 20 h
readout: IC50

Solved entries:
1. CC1(C)CC(=O)C2=C(C1)OC(=O)C(NC(=O)c1ccccc1)C2c1ccccc1Br (mixture of isomers)	5.13 µg/mL
2. O=C1CCCC2=C1C(c1ccco1)C(NC(=O)c1ccccc1)C(=O)O2 (mixture of isomers)	1.3 µg/mL
3. CC1(C)CC(=O)C2=C(C1)OC(=O)C(NC(=O)c1ccccc1)C2c1ccc([N+](=O)[O-])cc1 (mixture of isomers)	0.905 µg/mL
4. O=C1CCCC2=C1C(c1ccc(F)cc1)C(NC(=O)c1ccccc1)C(=O)O2 (mixture of isomers)	0.812 µg/mL

Entry Cc1ccc(C2C3=C(CC(C)(C)CC3=O)OC(=O)C2NC(=O)c2ccccc2)cc1 (mixture of isomers) — recorded IC50 = 2.69 µg/mL

Entry O=C1CCCC2=C1C(c1ccc(Cl)cc1)C(NC(=O)c1ccccc1)C(=O)O2 (mixture of isomers) — recorded IC50 = > 100 µg/mL

Entry O=C1CCCC2=C1C(c1ccccc1Br)C(NC(=O)c1ccccc1)C(=O)O2 (mixture of isomers) — recorded IC50 = 3.94 µg/mL

====

Test system: SGC-7901
assay-protocol: Cytotoxicity against human SGC7901 cells after 20 hrs by MTT assay
Type: functional, cell-based
measurement-parameters: SGC-7901, 20 h
Rule: IC50 below 0.6 µg/mL gives rule met, anything at or above gives rule not met.

Dear colleague, could you confirm whether IC50 of O=C1CCCC2=C1C(c1ccc([N+](=O)[O-])cc1)C(NC(=O)c1ccccc1)C(=O)O2 (mixture of isomers) falls below 0.6 µg/mL? Thanks.
rule not met

====

assay-protocol: Cytotoxicity against human SW1116 cells assessed as cell viability rate at 10 ug/ml after 24 hrs by MTT assay
Assay type: functional, SW 1116
readout: Cell viability
Put your answer as a value accompanied by its unit after it.

Solved entries:
1) O=C1CCCC2=C1C(c1ccco1)C(NC(=O)c1ccccc1)C(=O)O2 (mixture of isomers)	74.22%
2) O=C1CCCC2=C1C(c1ccc([N+](=O)[O-])cc1)C(NC(=O)c1ccccc1)C(=O)O2 (mixture of isomers)	55.22%

Entry O=C1CCCC2=C1C(c1ccc(Cl)cc1)C(NC(=O)c1ccccc1)C(=O)O2 (mixture of isomers) — recorded Cell viability = 69.78%

Entry O=C1CCCC2=C1C(c1cccs1)C(NC(=O)c1ccccc1)C(=O)O2 (mixture of isomers) — recorded Cell viability = 69.73%

====

assay-protocol: Cytotoxicity against human SW1116 cells assessed as cell viability rate at 1 ug/ml after 24 hrs by MTT assay
Format: functional, SW 1116
# key: entry, value: Cell viability
# number only, unit % dropped from output

Solved entries:
1. O=C1CCCC2=C1C(c1cccs1)C(NC(=O)c1ccccc1)C(=O)O2 (mixture of isomers)	81.65
2. O=C1CCCC2=C1C(c1ccccc1Cl)C(NC(=O)c1ccccc1)C(=O)O2 (mixture of isomers)	102.59
3. O=C1CCCC2=C1C(c1ccc(F)cc1)C(NC(=O)c1ccccc1)C(=O)O2 (mixture of isomers)	91.07

Entry COc1cc(C2C3=C(CC(C)(C)CC3=O)OC(=O)C2NC(=O)c2ccccc2)cc(OC)c1OC (mixture of isomers) — recorded Cell viability = 81.59

Entry CC1(C)CC(=O)C2=C(C1)OC(=O)C(NC(=O)c1ccccc1)C2c1ccc([N+](=O)[O-])cc1 (mixture of isomers) — recorded Cell viability = 73.4

Entry CC1(C)CC(=O)C2=C(C1)OC(=O)C(NC(=O)c1ccccc1)C2c1ccccc1Cl (mixture of isomers) — recorded Cell viability = 97.92

Entry COc1cc(C2C3=C(CCCC3=O)OC(=O)C2NC(=O)c2ccccc2)cc(OC)c1OC (mixture of isomers) — recorded Cell viability = 109.73

Entry O=C1CCCC2=C1C(c1ccc(Cl)cc1)C(NC(=O)c1ccccc1)C(=O)O2 (mixture of isomers) — recorded Cell viability = 89.77

Entry CC1(C)CC(=O)C2=C(C1)OC(=O)C(NC(=O)c1ccccc1)C2c1cccs1 (mixture of isomers) — recorded Cell viability = 104.31

Entry CC1(C)CC(=O)C2=C(C1)OC(=O)C(NC(=O)c1ccccc1)C2c1ccccc1Br (mixture of isomers) — recorded Cell viability = 99.3

Entry O=C1CCCC2=C1C(c1ccccc1Br)C(NC(=O)c1ccccc1)C(=O)O2 (mixture of isomers) — recorded Cell viability = 92.19

====

Test system: SGC-7901
assay-protocol: Cytotoxicity against human SGC7901 cells after 20 hrs by MTT assay
Assay type: functional, cell-based
measurement-parameters: SGC-7901, 20 h
readout: IC50

Entry CC1(C)CC(=O)C2=C(C1)OC(=O)C(NC(=O)c1ccccc1)C2c1ccc(Cl)cc1 (mixture of isomers) — recorded IC50 = > 100 µg/mL

Entry CC1(C)CC(=O)C2=C(C1)OC(=O)C(NC(=O)c1ccccc1)C2c1ccc(F)cc1 (mixture of isomers) — recorded IC50 = 0.436 µg/mL

Entry CC1(C)CC(=O)C2=C(C1)OC(=O)C(NC(=O)c1ccccc1)C2c1ccco1 (stereo not drawn) — recorded IC50 = 0.259 µg/mL

====

Test system: SGC-7901
assay-protocol: Cytotoxicity against human SGC7901 cells after 20 hrs by MTT assay
Type: functional, cell-based
measurement-parameters: SGC-7901, 20 h
readout: IC50 (µg/mL)
# number only, unit µg/mL dropped from output

1) COc1cc(C2C3=C(CCCC3=O)OC(=O)C2NC(=O)c2ccccc2)cc(OC)c1OC (mixture of isomers)	1.21
2) CC1(C)CC(=O)C2=C(C1)OC(=O)C(NC(=O)c1ccccc1)C2c1ccccc1Cl (mixture of isomers)	0.239
3) O=C1CCCC2=C1C(c1cccs1)C(NC(=O)c1ccccc1)C(=O)O2 (mixture of isomers)	0.701
4) Cc1ccc(C2C3=C(CCCC3=O)OC(=O)C2NC(=O)c2ccccc2)cc1 (mixture of isomers)	1.86
5) CC1(C)CC(=O)C2=C(C1)OC(=O)C(NC(=O)c1ccccc1)C2c1cccs1 (mixture of isomers)	0.612
6) COc1cc(C2C3=C(CC(C)(C)CC3=O)OC(=O)C2NC(=O)c2ccccc2)cc(OC)c1OC (mixture of isomers)	0.158

Now, please, on to the next compound.
Entry O=C1CCCC2=C1C(c1ccccc1Cl)C(NC(=O)c1ccccc1)C(=O)O2 (mixture of isomers) — recorded IC50 = 0.226

====

assay-protocol: Cytotoxicity against human SW1116 cells assessed as cell viability rate at 1 ug/ml after 24 hrs by MTT assay
Assay type: functional, SW 1116
readout: Cell viability (%)
# number only, unit % dropped from output

Solved entries:
1. CC1(C)CC(=O)C2=C(C1)OC(=O)C(NC(=O)c1ccccc1)C2c1ccc(Cl)cc1 (mixture of isomers)	77.81
2. O=C1CCCC2=C1C(c1ccc([N+](=O)[O-])cc1)C(NC(=O)c1ccccc1)C(=O)O2 (mixture of isomers)	100.6
3. Cc1ccc(C2C3=C(CCCC3=O)OC(=O)C2NC(=O)c2ccccc2)cc1 (mixture of isomers)	106.66

Entry Cc1ccc(C2C3=C(CC(C)(C)CC3=O)OC(=O)C2NC(=O)c2ccccc2)cc1 (mixture of isomers) — recorded Cell viability = 83.63
